System: UO-31 renal
Test name: NCI tumour cell line growth inhibition, 48 h
Please go through the items and note down their TGI.

Return reported TGI; argument: CC12CCC(Br)C(C)(C)C1CC=C1C(=O)OCC1O2 (stereo unspecified)
> 42.6 µM

Return reported TGI; argument: O=c1c(-c2ccccc2)coc2cc(OC/C(=N/O)c3ccccc3)ccc12
76.5 µM

Return reported TGI; argument: N/C(=N\N=C\c1ccc2c(c1)OCCO2)NO
> 53 µM

Return reported TGI; argument: CC(C)NC(=O)CN1CCN(c2c(O)c3c(c(O)c2Cl)C(=O)C=CC3=O)CC1
2.64 µM

Return reported TGI; argument: CC(=O)C1=C(O)CC2CC3c4[nH]c5ccccc5c4CCN3CC2C1 (stereo unspecified)
> 100 µM

Return reported TGI; argument: CCN(CC)C(=O)C(C)n1cc(C)c(=O)[nH]c1=O (stereo unspecified)
> 100 µM

Return reported TGI; argument: Cc1cc(C)cc(NC(N)=S)c1
> 100 µM

Return reported TGI; argument: Cc1cccc(NC(=O)c2cccc([N+](=O)[O-])c2O)c1C
74.7 µM

Return reported TGI; argument: Cc1cc(=O)oc2c(CNC(Cc3ccccc3)C(=O)O)c(O)ccc12 (stereo unspecified)
> 100 µM

Return reported TGI; argument: COc1ccc(-c2cc3[nH]nc(N)c3c(=O)o2)cc1
> 100 µM

Return reported TGI; argument: O=C1C(c2c(O)[nH]c3ccc(Br)cc23)=Nc2ccccc21
12.3 µM

Return reported TGI; argument: O=C1CSC(c2cccc([N+](=O)[O-])c2)N1c1ccc(-n2c(-c3ccccc3)nc3ccccc3c2=O)cc1 (stereo unspecified)
65.6 µM

Return reported TGI; argument: COc1ccccc1NC(=O)CC(=O)N/N=C/c1ccc(N(CCC#N)S(=O)(=O)c2ccccc2)cc1
> 100 µM

Return reported TGI; argument: CCOC(=O)c1ccc(N=c2sc3ccccc3nc2Nc2ccc(C(=O)OCC)cc2)cc1
> 100 µM

Return reported TGI; argument: CCC(=O)Nc1ccc(N2C(=O)C(Cl)C2c2ccc(SC)cc2)cc1 (stereo unspecified)
> 100 µM

Return reported TGI; argument: CCOC(=O)c1[nH]c(COC(C)=O)c2c1CCCCCCCCCC2
> 100 µM

Return reported TGI; argument: COC(=O)C1(C)C=CC(=O)C2(C)C1C(O)C1OC3CC(c4ccoc4)C(C)=C3C1(C)C2CC(=O)O (stereo unspecified)
> 100 µM

Return reported TGI; argument: OC(c1cc(C23CC4CC(CC(C4)C2)C3)nc2c(Cl)cc(Cl)cc12)C1CCCCN1 (stereo unspecified)
2.35 µM

Return reported TGI; argument: Cc1cccc(C)c1NC(=O)C(=O)Nn1c(NN)nc2ccccc2c1=O
> 100 µM

Return reported TGI; argument: C[N+]1=C(/C=C\C=C\c2ccccc2)C(C)(C)c2ccccc21
15 µM

Return reported TGI; argument: CC(=O)C1CC[C@@H]2[C@H](CC[C@]3(C)[C@@H](O)CC[C@@H]23)[C@H]1C(=O)O (stereo partly specified)
> 100 µM

Return reported TGI; argument: O=C1CCc2c(sc3[nH]c(=S)n(Cc4ccc(Cl)cc4)c(=O)c23)C1
1.21 µM

Return reported TGI; argument: COc1ccc(OCC(=O)O)c(C(=O)CCC(=O)O)c1
> 100 µM

Return reported TGI; argument: CCCCCCCCCCNC(=O)CCC(NC(=O)c1ccc(N(C)Cc2cnc3nc(N)nc(N)c3n2)cc1)C(=O)NCCCCCCCCCC (stereo unspecified)
> 100 µM

Return reported TGI; argument: Cc1ccc(O)c(NC(=O)c2ccc(CNc3ccnc(C(F)(F)F)c3)cc2)c1
13.3 µM

Return reported TGI; argument: Nn1c(Cc2ccc([N+](=O)[O-])cc2)n[nH]c1=O
> 100 µM

Return reported TGI; argument: O=[N+]([O-])c1ccc(N/N=C/c2ccc(OCCCCCCCCCCCO)cc2)c([N+](=O)[O-])c1
36.1 µM

Return reported TGI; argument: COc1ccc(SCc2cc(OCc3ccccc3)c(OCc3ccccc3)c(OCc3ccccc3)c2)cc1
3.18 µM

Return reported TGI; argument: O=C1C(=Cc2c(O)cc(O)cc2O)C(=O)c2ccccc21
> 100 µM

Return reported TGI; argument: CCN1CCC(O)(c2ccc(Cl)cc2)C(C(=O)c2ccc(Cl)cc2)C1 (stereo unspecified)
> 100 µM

Return reported TGI; argument: CC(=O)OCC1OC(n2c(-c3ccc(C)cc3)cc(-c3ccccc3)c(C#N)c2=O)C(OC(C)=O)C(OC(C)=O)C1OC(C)=O (stereo unspecified)
> 100 µM

Return reported TGI; argument: Cn1c(-c2cccc([N+](=O)[O-])c2)[n+](C)c2ccccc21
> 100 µM

Return reported TGI; argument: Cc1ccc2c(c1)-c1nc(N)c(C#N)c(-c3ccccc3)c1CCS2(=O)=O
> 100 µM

Return reported TGI; argument: CC(C)(C)c1cc(O)ccc1O
> 72.8 µM

Return reported TGI; argument: COC(C)(C)C/C=C/C(C)=C/C=C/C(C)=C\C=C\C(C)=C\C=C\C=C(C)\C=C\C=C(C)\C=C\C=C(C)\C=C\CC(C)(C)OC
> 150 µg/mL

Return reported TGI; argument: O=C1c2ccc(O)c(O)c2C(=O)c2c(O)ccc(O)c21
42.8 µM

Return reported TGI; argument: CC1(C)OCC=CCO1
> 100 µM

Return reported TGI; argument: CN(C)c1nc(Cl)c2c(-c3ccccc3)c(-c3ccccc3)oc2n1
> 100 µM

Return reported TGI; argument: CC(C)CC(NC(=O)OC(C)(C)C)C(=O)Nc1ccc(Nc2nc(F)nc(-c3c4ccccc4cn3C)n2)cc1 (stereo unspecified)
> 100 µM

Return reported TGI; argument: O=C(c1ccccc1)c1cn(/N=C\c2ccccc2)c(=O)nc1-c1ccccc1
> 100 µM

Return reported TGI; argument: COC(=O)c1ccccc1C1CN=NC12Cc1cc(C)ccc1C2=O (stereo unspecified)
> 100 µM
